TARGET_OR_TEST_SYSTEM: HLA-A*1101 (Homo sapiens, UniProt P04439, A114D/D185E/E176A/F33Y/L180Q/S129P/T187R)
ASSAY_NAME: HLA class I binding assay, purified HLA-A*1101
ASSAY_CONDITIONS: Table XXIII, binding affinity
Exercise: state measured pIC50 for each of the molecules provided.
// pIC50 here means minus log10 of the molar concentration (mol/L)

stdin: Report measured pIC50; entry is CC(C)C[C@H](NC(=O)[C@@H](NC(=O)[C@@H](N)CCCNC(=N)N)C(C)C)C(=O)N[C@H](C(=O)N[C@@H](CC(C)C)C(=O)N[C@@H](Cc1ccccc1)C(=O)N[C@@H](CC(N)=O)C(=O)N[C@H](C(=O)N[C@H](C(=O)N[C@@H](CCCCN)C(=O)O)[C@@H](C)O)C(C)C)[C@@H](C)O [CEA.554.V42K10]
stdout: 7.49

stdin: Kindly indicate its recorded pIC50. Item: CC(C)C[C@H](NC(=O)[C@H](CC(N)=O)NC(=O)[C@H](CO)NC(=O)[C@@H](NC(=O)[C@@H](N)Cc1ccccc1)C(C)C)C(=O)N[C@@H](C)C(=O)N[C@H](C(=O)NCC(=O)N[C@@H](CCCCN)C(=O)O)[C@@H](C)O [CEA.656.K9]
stdout: 6.68

stdin: Give the reported value of pIC50 for this record: CC(C)[C@H](NC(=O)[C@@H](N)[C@@H](C)O)C(=O)N[C@@H](CO)C(=O)N1CCC[C@H]1C(=O)N[C@@H](CO)C(=O)N[C@@H](Cc1ccc(O)cc1)C(=O)N[C@H](C(=O)N[C@@H](Cc1ccc(O)cc1)C(=O)N[C@@H](Cc1ccc(O)cc1)C(=O)N[C@@H](CCCNC(=N)N)C(=O)O)[C@@H](C)O [CEA.419.V2]
stdout: 5.52

stdin: Given CC(C)[C@H](NC(=O)[C@@H](N)[C@@H](C)O)C(=O)N[C@@H](CO)C(=O)N1CCC[C@H]1C(=O)N[C@@H](CO)C(=O)N[C@@H](Cc1ccc(O)cc1)C(=O)N[C@H](C(=O)N[C@@H](Cc1ccc(O)cc1)C(=O)N[C@@H](Cc1ccc(O)cc1)C(=O)N[C@@H](CCCCN)C(=O)O)[C@@H](C)O [CEA.419.V2K10] , respond with its pIC50.
stdout: 7.37

----------
TARGET_OR_TEST_SYSTEM: HLA-A*6802 (Homo sapiens, UniProt P04439, A269V/D140Y/D185E/E176V/E277Q/E87N/F33Y/G231S/I121R/I166T/I218V/L180W/L300P/L318F/N151K/P208A/P217A/Q86R/R138H/R169H/S129P/T345S/V36M)
ASSAY_NAME: HLA class I binding assay, purified HLA-A*6802
ASSAY_CONDITIONS: Table XXII, binding affinity
pIC50: −log10 of the molar value.
Rule: Met for pIC50 not less than 7, Not met for anything less.

stdin: Determine whether this molecule has pIC50 no lower than 7: `CC[C@H](C)[C@H](NC(=O)[C@H](CC(C)C)NC(=O)[C@@H](N)CCC(N)=O)C(=O)NCC(=O)N[C@@H](Cc1ccc(O)cc1)C(=O)N[C@H](C(=O)N[C@H](C(=O)NCC(=O)N[C@H](C(=O)O)C(C)C)[C@@H](C)CC)C(C)C`
stdout: Met

stdin: Dear colleague, could you confirm whether `CC[C@H](C)[C@H](NC(=O)CN)C(=O)N[C@@H](CCSC)C(=O)N[C@H](C(=O)NCC(=O)N[C@H](C(=O)N[C@@H](CC(C)C)C(=O)N[C@H](C(=O)NCC(=O)N[C@H](C(=O)O)C(C)C)C(C)C)C(C)C)[C@@H](C)CC` has pIC50 at or above 7?
stdout: Not met

stdin: Form field: pIC50 at least 7? Entry: `CC[C@H](C)[C@H](NC(=O)CNC(=O)[C@H](CS)NC(=O)[C@H](CC(C)C)NC(=O)[C@@H](N)Cc1ccc(O)cc1)C(=O)N[C@@H](CCC(N)=O)C(=O)N[C@@H](CC(N)=O)C(=O)N[C@@H](CO)C(=O)N[C@H](C(=O)O)C(C)C`
stdout: Not met
